molecular target: HLA-B*57:01; experiment: IEDB peptide-MHC binding, purified MHC/competitive/radioactivity; filed as Kd, often an IC50 or EC50 that approximates it; bounds were set here for any values at or beyond the usual limits of such assays; conditions: source organism: Dengue virus 2 Jamaica/1409/1983
EXPERIMENTAL READOUT: Kd (nM)
The response must be a number in nM with no trailing unit.

Task item: Consider the sequence shown here: `PASAWTLYAV` What is its recorded Kd?
Reply: 1110

---

molecular target: HLA-A*68:02; experiment: IEDB peptide-MHC binding, purified MHC/competitive/radioactivity; filed as Kd, often an IC50 or EC50 that approximates it; bounds were set here for any values at or beyond the usual limits of such assays; settings: source organism: Vaccinia virus WR
EXPERIMENTAL READOUT: Kd

Task item: Which Kd is reported for this sequence? `IPYLRNYMVI`
Reply: 15.5 µM

Task item: Can you handle `ISIIVLFQR` next?
Reply: 8.93 µM

Task item: What would you report for `KQYIVATLMK` ?
Reply: ≥ 49 µM
